tested_on: T1, His-tagged CEACAM1 (human, UniProt P13688 35-428)
T1 construct: 45 kDa SPR analyte; also called CEACAM1-HIS; CEACAM1 analyte
T1 sequence: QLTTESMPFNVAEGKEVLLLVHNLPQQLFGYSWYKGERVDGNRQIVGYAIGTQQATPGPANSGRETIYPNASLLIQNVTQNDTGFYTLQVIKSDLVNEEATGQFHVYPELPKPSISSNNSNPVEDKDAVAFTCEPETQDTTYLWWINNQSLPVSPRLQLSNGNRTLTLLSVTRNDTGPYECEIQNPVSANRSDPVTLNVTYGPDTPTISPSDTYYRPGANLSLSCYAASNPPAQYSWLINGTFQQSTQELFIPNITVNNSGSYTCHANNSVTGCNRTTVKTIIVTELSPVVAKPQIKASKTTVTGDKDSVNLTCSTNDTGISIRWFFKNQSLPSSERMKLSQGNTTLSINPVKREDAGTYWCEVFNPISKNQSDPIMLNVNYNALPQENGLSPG
protocol_details: SPR single-cycle, supernatant IgG captured
parameter: Kd (nM)
Give bare numbers, in nM.

Answered examples (2):
CP08H03/CP08F05 (antibody, V domains shown, IgG4 (S241P), kappa) VH: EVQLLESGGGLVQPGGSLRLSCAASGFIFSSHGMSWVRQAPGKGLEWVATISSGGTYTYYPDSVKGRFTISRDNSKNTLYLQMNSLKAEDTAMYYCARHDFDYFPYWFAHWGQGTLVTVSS VL: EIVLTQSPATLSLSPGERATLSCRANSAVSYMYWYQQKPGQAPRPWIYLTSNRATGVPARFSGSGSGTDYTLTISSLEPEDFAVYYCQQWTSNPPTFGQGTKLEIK | 110
VH1/CP08E01 (antibody, IgG4, V domains shown, IgG4 (S241P), kappa; also called Parent VH/CP08E01) VH: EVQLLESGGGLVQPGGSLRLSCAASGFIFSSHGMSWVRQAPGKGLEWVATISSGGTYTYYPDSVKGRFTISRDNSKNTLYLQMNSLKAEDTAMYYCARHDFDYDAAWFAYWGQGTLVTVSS VL: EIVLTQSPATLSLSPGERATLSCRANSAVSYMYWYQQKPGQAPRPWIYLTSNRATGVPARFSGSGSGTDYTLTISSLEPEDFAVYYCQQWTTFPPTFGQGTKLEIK | 450

We now examine a further binder.
Fill in the blank: the reported Kd of VH1/Vκ8 S29A (antibody, IgG4, V domains shown, IgG4 (S241P), kappa; also called Parent; Parent (VH1/Vκ8 S29A)) VH: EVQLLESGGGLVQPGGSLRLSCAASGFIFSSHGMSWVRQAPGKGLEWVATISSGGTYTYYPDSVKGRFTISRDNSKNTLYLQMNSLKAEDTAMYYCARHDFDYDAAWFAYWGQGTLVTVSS VL: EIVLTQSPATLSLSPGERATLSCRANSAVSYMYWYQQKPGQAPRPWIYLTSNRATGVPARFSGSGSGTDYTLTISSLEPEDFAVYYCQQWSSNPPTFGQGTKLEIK is ____.
550
